tested on: Escherichia coli; experiment: Antibacterial activity against Escherichia coli MTCC 443 by broth microdilution method; type: functional
The following molecules are shown together with reported MIC values.

- molecule: "COc1ccc(NN2C(N)=C(C#N)C(c3cc4cc(OC)ccc4nc3Cl)C3=C2CC(C)(C)CC3=O)cc1 (stereo not given)"
  MIC: "100 µg/mL"
- molecule: "O=C(N[C@H](CO)[C@H](O)c1ccc([N+](=O)[O-])cc1)C(Cl)Cl [CHLORAMPHENICOL]"
  MIC: "50 µg/mL"
- molecule: "COc1ccc(NN2C(N)=C(C#N)C(c3cc4ccccc4nc3Cl)C3=C2CC(C)(C)CC3=O)cc1 (stereo not given)"
  MIC: "250 µg/mL"
- molecule: "COc1ccc2nc(Cl)c(C3C(C#N)=C(N)N(Nc4ccc(Br)cc4)C4=C3C(=O)CC(C)(C)C4)cc2c1 (stereo not given)"
  MIC: "200 µg/mL"
- molecule: "CC1(C)S[C@@H]2[C@H](NC(=O)[C@H](N)c3ccccc3)C(=O)N2[C@H]1C(=O)O [AMPICILLIN]"
  MIC: "100 µg/mL"
- molecule: "Cc1ccc2nc(Cl)c(C3C(C#N)=C(N)N(Nc4ccc(Cl)cc4)C4=C3C(=O)CC(C)(C)C4)cc2c1 (stereo not given)"
  MIC: "100 µg/mL"
- molecule: "CC1(C)CC(=O)C2=C(C1)N(Nc1ccccc1)C(N)=C(C#N)C2c1cc2cc(Cl)ccc2nc1Cl (stereo not given)"
  MIC: "200 µg/mL"
- molecule: "CC1(C)CC(=O)C2=C(C1)N(Nc1ccc(Br)cc1)C(N)=C(C#N)C2c1cc2ccccc2nc1Cl (stereo not given)"
  MIC: "250 µg/mL"
- molecule: "Cc1ccc(NN2C(N)=C(C#N)C(c3cc4ccccc4nc3Cl)C3=C2CC(C)(C)CC3=O)cc1 (stereo not given)"
  MIC: "200 µg/mL"
- molecule: "Cc1ccc2nc(Cl)c(C3C(C#N)=C(N)N(Nc4ccc(F)cc4)C4=C3C(=O)CC(C)(C)C4)cc2c1 (stereo not given)"
  MIC: "250 µg/mL"
- molecule: "COc1ccc2nc(Cl)c(C3C(C#N)=C(N)N(Nc4ccc(C)cc4)C4=C3C(=O)CC(C)(C)C4)cc2c1 (stereo not given)"
  MIC: "150 µg/mL"
- molecule: "CC1(C)CC(=O)C2=C(C1)N(Nc1ccc(Cl)cc1)C(N)=C(C#N)C2c1cc2ccccc2nc1Cl (stereo not given)"
  MIC: "200 µg/mL"
- molecule: "CC1(C)CC(=O)C2=C(C1)N(Nc1ccc(Br)cc1)C(N)=C(C#N)C2c1cc2cc(Cl)ccc2nc1Cl (stereo not given)"
  MIC: "100 µg/mL"
- molecule: "COc1ccc2nc(Cl)c(C3C(C#N)=C(N)N(Nc4ccc(F)cc4)C4=C3C(=O)CC(C)(C)C4)cc2c1 (stereo not given)"
  MIC: "125 µg/mL"
- molecule: "CC1(C)CC(=O)C2=C(C1)N(Nc1ccccc1)C(N)=C(C#N)C2c1cc2ccccc2nc1Cl (stereo not given)"
  MIC: "200 µg/mL"
- molecule: "Cc1ccc(NN2C(N)=C(C#N)C(c3cc4cc(Cl)ccc4nc3Cl)C3=C2CC(C)(C)CC3=O)cc1 (stereo not given)"
  MIC: "250 µg/mL"
- molecule: "Cc1ccc2nc(Cl)c(C3C(C#N)=C(N)N(Nc4ccccc4)C4=C3C(=O)CC(C)(C)C4)cc2c1 (stereo not given)"
  MIC: "100 µg/mL"
- molecule: "CC1(C)CC(=O)C2=C(C1)N(Nc1ccc(F)cc1)C(N)=C(C#N)C2c1cc2ccccc2nc1Cl (stereo not given)"
  MIC: "200 µg/mL"
- molecule: "CC1(C)CC(=O)C2=C(C1)N(Nc1ccc(Cl)cc1)C(N)=C(C#N)C2c1cc2cc(Cl)ccc2nc1Cl (stereo not given)"
  MIC: "62.5 µg/mL"
- molecule: "CC1(C)CC(=O)C2=C(C1)N(Nc1ccc(F)cc1)C(N)=C(C#N)C2c1cc2cc(Cl)ccc2nc1Cl (stereo not given)"
  MIC: "250 µg/mL"
